- experimentalDetails: Acute toxicity (Litchfield and Wilcoxon method), rat
- conditions: Wistar, in vivo, ip
readoutLabel: LD50
Give the value; after it, write the unit.

Documented LD50 of CC(=O)Oc1ccccc1C(=O)OC1CC(C(C)(C)O)CC=C1C (stereo not shown) : 1950 mg/kg

Origin of values: patent EP0084678B1
